pIC50 for assorted molecules
test system: MCF7; assay: Cytotoxicity against human MCF7 cells after 48 hrs by sulforhodamine B method; type: functional, cell-based; details: MCF7, 48 h
pIC50: −log10 of the molar value.

{"structure": "C[C@]12C[C@H](c3ccoc3)OC(=O)[C@H]1CCC1=C(/C=C\\CC2=O)C(=O)OC1", "result": "< 5.00"}

Problem: Provide pIC50, recorded with MCF7, of C[C@]12C[C@H](c3ccoc3)OC(=O)[C@H]1CC[C@@]13COC(=O)C1=CC=C[C@@]32O
Result: < 5.00

----------
system: K562; assay: Cytotoxicity against human K562 cells after 48 hrs by sulforhodamine B method; type: functional, cell-based; conditions: K562, 48 h
pIC50: −log10 of the molar value.
pIC50 for assorted molecules

{"structure": "C[C@]12C[C@H](c3ccoc3)OC(=O)[C@H]1CCC1=C(/C=C\\CC2=O)C(=O)OC1", "pIC50": "< 5.00"}

We now examine a further molecule.
Problem: Kindly indicate its recorded pIC50. Item: C[C@]12C[C@H](c3ccoc3)OC(=O)[C@H]1CC[C@@]13COC(=O)C1=CC=C[C@@]32O
Result: < 5.00

Where do the numbers come from? From ChEMBL document CHEMBL3232833.
